Can you tell me pIC50 for the items I'm about to list?
# targetDesc: O-acetylserine sulfhydrylase (Mycobacterium tuberculosis (strain ATCC 25618 / H37Rv))
# testMethodNotes: Inhibition of Mycobacterium tuberculosis CysK1 using O-acetyl-L-serine as substrate assessed as L-cycteine formation after 5 mins by spectrophotometric analysis
pIC50 is defined as minus the log10 of a concentration measured in mol/L.

// query Using the record for Cc1ccccc1C1NC(=S)Nc2c1c(=O)nc1sc([N+](=O)[O-])cn21 (configuration not stated) , report its pIC50.
// result 4.75

// query Please look up its pIC50: O=C1Nc2c(c(=O)nc3sc([N+](=O)[O-])cn23)C(c2ccccc2C(F)(F)F)N1 (configuration not stated)
// result 4.75
